assay: Elimination half life in CD-1 mouse at 5 mg/kg, iv measured at 5 to 24 hrs by LC-MS/MS analysis; assay type: ADME, organism-based; conditions: in vivo, time lower 5 hrs, read-out: LambdaZ (converted)
readout: half-life (h)
Field format: number, assumed h, no unit text.

### Prompt // lookup half-life for CO[C@H]1/C=C/O[C@@]2(C)Oc3c(C)c(O)c4c(c3C2=O)C2=NC3(CCN(CC(C)C)CC3)NC2=C(NC(=O)/C(C)=C\C=C\[C@H](C)[C@H](O)[C@@H](C)[C@@H](O)[C@@H](C)[C@H](OC(C)=O)[C@@H]1C)C4=O [RIFABUTIN]
### Response 3.4

---

assay: Elimination half life in CD-1 mouse at 7 mg/kg, iv measured at 5 to 24 hrs by LC-MS/MS analysis; type: ADME, organism-based; settings: in vivo, time lower 5 hrs, read-out: LambdaZ (converted)
readout: half-life (h)
Provide the reading as a plain figure in h.

### Prompt For CO[C@H]1/C=C/O[C@@]2(C)Oc3c(C)c(O)c4c(c3C2=O)C2NC3(CCN(CC(C)C)CC3)NC2=C(NC(=O)/C(C)=C\C=C\[C@H](C)[C@H](OC(=O)CN(C)C(=O)CNC(=O)OCc2ccc(OP(=O)(O)O)cc2)[C@@H](C)[C@@H](O)[C@@H](C)[C@H](OC(C)=O)[C@@H]1C)C4=O (stereo partly specified) , what is its reported half-life?
### Response 2.9

---

Parameter: half-life. Scope: all listed entries.
assay: Elimination half life in CD-1 mouse at 6.5 mg/kg, iv measured at 5 to 24 hrs by LC-MS/MS analysis; assay type: ADME, organism-based; settings: in vivo, time lower 5 hrs, read-out: LambdaZ (converted)
Write it as a number; the unit h goes unstated.

[[record]]
molecule = "CO[C@H]1/C=C/O[C@@]2(C)Oc3c(C)c(O)c4c(c3C2=O)C2NC3(CCN(CC(C)C)CC3)NC2=C(NC(=O)/C(C)=C\\C=C\\[C@H](C)[C@H](OC(=O)CN(C)C(=O)CNC(=O)[C@@H](N)CCCCN)[C@@H](C)[C@@H](O)[C@@H](C)[C@H](OC(C)=O)[C@@H]1C)C4=O (some centres not stated)"
result_number = 10.7


### Prompt Need half-life of CO[C@H]1/C=C/O[C@@]2(C)Oc3c(C)c(O)c4c(c3C2=O)C2NC3(CCN(CC(C)C)CC3)NC2=C(NC(=O)/C(C)=C\C=C\[C@H](C)[C@H](OC(=O)CN(C)C(=O)COC(=O)CN(C)C)[C@@H](C)[C@@H](O)[C@@H](C)[C@H](OC(C)=O)[C@@H]1C)C4=O (some centres not stated) , thanks.
### Response 3

---

assay: Cmax in CD-1 mouse at 5 mg/kg, iv measured at 5 to 24 hrs by LC-MS/MS analysis; type: ADME, organism-based; parameters: dose 5 mg/kg, route iv; conditions: in vivo
readout: Cmax (ng/mL)
Express your answer in ng/mL, writing the number without its unit.

### Prompt Recorded Cmax of `CO[C@H]1/C=C/O[C@@]2(C)Oc3c(C)c(O)c4c(c3C2=O)C2=NC3(CCN(CC(C)C)CC3)NC2=C(NC(=O)/C(C)=C\C=C\[C@H](C)[C@H](O)[C@@H](C)[C@@H](O)[C@@H](C)[C@H](OC(C)=O)[C@@H]1C)C4=O` , please.
### Response 2200

---

tested on: Staphylococcus aureus; assay: Antibacterial activity against Staphylococcus aureus assessed assessed as reduction in bacterial growth in CAMHB in absence of human serum measured after 20 hrs by microdilution assay; assay type: functional
readout: MIC (µg/mL)
Please give a number only; it is taken to be in µg/mL.

[[record]]
compound = "CO[C@H]1/C=C/O[C@@]2(C)Oc3c(C)c(O)c4c(c3C2=O)C2=NC3(CCN(CC(C)C)CC3)NC2=C(NC(=O)/C(C)=C\\C=C\\[C@H](C)[C@H](O)[C@@H](C)[C@@H](O)[C@@H](C)[C@H](OC(C)=O)[C@@H]1C)C4=O"
readout = "MIC"
result_number = 0.016

[[record]]
compound = "CO[C@H]1/C=C/O[C@@]2(C)Oc3c(C)c(O)c4c(c3C2=O)C2NC3(CCN(CC(C)C)CC3)NC2=C(NC(=O)/C(C)=C\\C=C\\[C@H](C)[C@H](OC(=O)CN(C)C(=O)CNC(=O)OCc2ccc(OP(=O)(O)O)cc2)[C@@H](C)[C@@H](O)[C@@H](C)[C@H](OC(C)=O)[C@@H]1C)C4=O (some centres undefined)"
readout = "MIC"
result_number = 32

[[record]]
compound = "CO[C@H]1/C=C/O[C@@]2(C)Oc3c(C)c(O)c4c(c3C2=O)C2NC3(CCN(CC(C)C)CC3)NC2=C(NC(=O)/C(C)=C\\C=C\\[C@H](C)[C@H](OC(=O)CN(C)C(=O)CNC(=O)[C@@H](N)CCCCN)[C@@H](C)[C@@H](O)[C@@H](C)[C@H](OC(C)=O)[C@@H]1C)C4=O (some centres undefined)"
readout = "MIC"
result_number = 16


Please look at the following compound next.
### Prompt Item under review: CO[C@H]1/C=C/O[C@@]2(C)Oc3c(C)c(O)c4c(c3C2=O)C2NC3(CCN(CC(C)C)CC3)NC2=C(NC(=O)/C(C)=C\C=C\[C@H](C)[C@H](OC(=O)CN(C)C(=O)COC(=O)CN(C)C)[C@@H](C)[C@@H](O)[C@@H](C)[C@H](OC(C)=O)[C@@H]1C)C4=O (some centres undefined) . Reported MIC?
### Response 1

---

assay: Tmax in CD-1 mouse at 7 mg/kg, iv measured at 5 to 24 hrs by LC-MS/MS analysis; type: ADME, organism-based; conditions: in vivo, time lower 5 hrs
readout: Tmax
# do not omit the unit; it follows the number

### Prompt So what's the measured Tmax for this one? CO[C@H]1/C=C/O[C@@]2(C)Oc3c(C)c(O)c4c(c3C2=O)C2NC3(CCN(CC(C)C)CC3)NC2=C(NC(=O)/C(C)=C\C=C\[C@H](C)[C@H](OC(=O)CN(C)C(=O)CNC(=O)OCc2ccc(OP(=O)(O)O)cc2)[C@@H](C)[C@@H](O)[C@@H](C)[C@H](OC(C)=O)[C@@H]1C)C4=O (stereo partly specified)
### Response 4.98 min

---

assay: Cmax in CD-1 mouse at 6.5 mg/kg, iv measured at 5 to 24 hrs by LC-MS/MS analysis; type: ADME, organism-based; parameters: time lower 5 hrs, dose 6.5 mg/kg, route iv; settings: in vivo
readout: Cmax (ng/mL)
The reply should be a number in ng/mL, with the unit left off.

[[record]]
compound = "CO[C@H]1/C=C/O[C@@]2(C)Oc3c(C)c(O)c4c(c3C2=O)C2NC3(CCN(CC(C)C)CC3)NC2=C(NC(=O)/C(C)=C\\C=C\\[C@H](C)[C@H](OC(=O)CN(C)C(=O)CNC(=O)[C@@H](N)CCCCN)[C@@H](C)[C@@H](O)[C@@H](C)[C@H](OC(C)=O)[C@@H]1C)C4=O (some centres not stated)"
readout = "Cmax"
unit_spec = "ng/mL"
result_number = 300


### Prompt What Cmax value was documented for this compound, CO[C@H]1/C=C/O[C@@]2(C)Oc3c(C)c(O)c4c(c3C2=O)C2NC3(CCN(CC(C)C)CC3)NC2=C(NC(=O)/C(C)=C\C=C\[C@H](C)[C@H](OC(=O)CN(C)C(=O)COC(=O)CN(C)C)[C@@H](C)[C@@H](O)[C@@H](C)[C@H](OC(C)=O)[C@@H]1C)C4=O (some centres not stated) ?
### Response 1100

---

assay: Water solubility of compound in PBS buffer at pH 7.4 by UPLC-MS analysis; format: physicochemical
readout: solubility (µg/mL)
State just the number; it will be interpreted in µg/mL.

Some entries whose results are on file:
[[record]]
molecule = "CO[C@H]1/C=C/O[C@@]2(C)Oc3c(C)c(O)c4c(c3C2=O)C2=NC3(CCN(CC(C)C)CC3)NC2=C(NC(=O)/C(C)=C\\C=C\\[C@H](C)[C@H](O)[C@@H](C)[C@@H](O)[C@@H](C)[C@H](OC(C)=O)[C@@H]1C)C4=O"
readout = "solubility"
result_number = 200

[[record]]
molecule = "CO[C@H]1/C=C/O[C@@]2(C)Oc3c(C)c(O)c4c(c3C2=O)C2NC3(CCN(CC(C)C)CC3)NC2=C(NC(=O)/C(C)=C\\C=C\\[C@H](C)[C@H](OC(=O)CN(C)C(=O)COC(=O)CN(C)C)[C@@H](C)[C@@H](O)[C@@H](C)[C@H](OC(C)=O)[C@@H]1C)C4=O (some centres undefined)"
readout = "solubility"
result_number = 700


Alright, here's another molecule for you.
### Prompt Return reported solubility; argument: CO[C@H]1/C=C/O[C@@]2(C)Oc3c(C)c(O)c4c(c3C2=O)C2NC3(CCN(CC(C)C)CC3)NC2=C(NC(=O)/C(C)=C\C=C\[C@H](C)[C@H](OC(=O)CN(C)C(=O)CNC(=O)OCc2ccc(OP(=O)(O)O)cc2)[C@@H](C)[C@@H](O)[C@@H](C)[C@H](OC(C)=O)[C@@H]1C)C4=O (some centres undefined)
### Response 4500
